procedure_summary: Solubility of active ingredients in solvents of the invention (equilibrated 4 weeks, supernatant analysed by gas chromatography)
run_parameters: solvent propylene glycol benzoate (compound 1); 25° C.; equilibrated 4 weeks
measurement_label: Solubility in propylene glycol benzoate at 25° C. (% w/w)
Numbers only, in % w/w.

Example cases with answers are listed next.
INSERT INTO results (compound, numeric_readout) VALUES
  ('COCCOCc1nc(C(F)(F)F)ccc1C(=O)C1=C(O)C2CCC(C2)C1=O (stereo not shown)', 27.4),
  ('CO/C=C(/C(=O)OC)c1ccccc1Oc1cc(Oc2ccccc2C#N)ncn1 [Azoxystrobin]', 5.5),
  ('CC(C)C1C2CCC1c1c(NC(=O)c3cn(C)nc3C(F)F)cccc12 (stereo not shown) [Isopyrazam]', 12.7);

Could you now consider this next compound?
The recorded Solubility in propylene glycol benzoate at 25° C. for entry N#Cc1c(Cl)c(Cl)c(Cl)c(C#N)c1Cl [Chlorothalonil] equals 1.32
